Target: Mre11;Rad50 R868E (Pyrococcus furiosus;Pyrococcus furiosus, UniProt Q8U1N9;P58301 1-426;1-882, |R868E)
Sequence (P58301 whole entry R868E, one chain of several): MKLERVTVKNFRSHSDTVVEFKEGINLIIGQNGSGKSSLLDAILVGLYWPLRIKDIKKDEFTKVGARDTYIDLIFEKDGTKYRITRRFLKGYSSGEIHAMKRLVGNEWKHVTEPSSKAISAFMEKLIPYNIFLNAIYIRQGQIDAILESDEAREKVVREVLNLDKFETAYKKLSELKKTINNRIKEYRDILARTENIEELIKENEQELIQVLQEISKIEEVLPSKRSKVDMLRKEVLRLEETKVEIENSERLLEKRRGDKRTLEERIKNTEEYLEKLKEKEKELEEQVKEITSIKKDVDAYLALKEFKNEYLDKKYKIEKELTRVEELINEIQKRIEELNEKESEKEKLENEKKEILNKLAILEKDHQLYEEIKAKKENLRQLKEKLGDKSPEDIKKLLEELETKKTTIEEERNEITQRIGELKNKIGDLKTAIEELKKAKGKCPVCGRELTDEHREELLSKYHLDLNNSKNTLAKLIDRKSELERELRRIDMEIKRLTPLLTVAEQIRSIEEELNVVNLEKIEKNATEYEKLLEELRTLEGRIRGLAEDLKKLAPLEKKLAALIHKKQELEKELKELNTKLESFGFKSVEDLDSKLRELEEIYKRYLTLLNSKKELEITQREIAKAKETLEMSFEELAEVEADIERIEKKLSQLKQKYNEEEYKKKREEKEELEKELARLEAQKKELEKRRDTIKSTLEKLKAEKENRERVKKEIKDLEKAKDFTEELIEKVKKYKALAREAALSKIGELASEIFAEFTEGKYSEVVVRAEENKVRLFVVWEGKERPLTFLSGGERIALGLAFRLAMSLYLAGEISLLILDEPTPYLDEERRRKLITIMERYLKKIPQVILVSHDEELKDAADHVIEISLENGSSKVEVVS
Experiment: fluorescence polarization
QUANTITY KIND: Kd (nM)
Numbers only here, please. The scale is nM.

Looking up 40-mer dsDNA (dsDNA) DNA 1: GTGTTCGGACTCTGCCTCAAGACGGTAGTCAACGTGCTTG DNA 2: CAAGCACGTTGACTACCGTCTTGAGGCAGAGTCCGAACAC , I see its Kd listed as 750
